# tested-target: CDK4/cyclinD1 (Homo sapiens)
# assay-summary: CDKi biochemical assay (TR-FRET, phosphorylation of S780 on RB1 peptide)
# test-context: CDK4/cyclinD1 20 pM, 1 mM ATP, 60 min at 25° C.
measured-quantity: IC50

chemical_smiles=COCc1n[nH]cc1Nc1ncc2c(n1)N([C@@H]1CCC[C@@H](O)C1)C(=O)C21CC1 tested_target="CDK4/cyclinD1 (Homo sapiens)" observed_result="2.26 µM"
chemical_smiles=O=C1N([C@@H]2CCC[C@@H](O)C2)c2nc(Nc3c[nH]nc3OC[C@H]3COCCO3)ncc2C12CC2 tested_target="CDK4/cyclinD1 (Homo sapiens)" observed_result="≥ 10 µM"
chemical_smiles=O=C1N([C@@H]2CCC[C@@H](O)C2)c2nc(Nc3c[nH]nc3OC[C@H]3CCOC3)ncc2C12CC2 tested_target="CDK4/cyclinD1 (Homo sapiens)" observed_result="≥ 10 µM"
chemical_smiles=COc1n[nH]cc1Nc1ncc2c(n1)N([C@@H]1CCCC[C@@H](O)C1)C(=O)C21CC1 tested_target="CDK4/cyclinD1 (Homo sapiens)" observed_result="≥ 10 µM"
chemical_smiles=CO[C@H]1C[C@H](Oc2n[nH]cc2Nc2ncc3c(n2)N([C@@H]2CCC[C@@H](O)C2)C(=O)C32CC2)C1 tested_target="CDK4/cyclinD1 (Homo sapiens)" observed_result="≥ 10 µM"
chemical_smiles=Cn1ncc(-c2n[nH]cc2Nc2ncc3c(n2)N([C@@H]2CCC[C@@H](O)C2)C(=O)C32CC2)c1C(F)(F)F tested_target="CDK4/cyclinD1 (Homo sapiens)" observed_result="≥ 10 µM"
chemical_smiles=COCC(F)(F)COc1n[nH]cc1Nc1ncc2c(n1)N([C@@H]1CCC[C@@H](O)C1)C(=O)C21CC1 tested_target="CDK4/cyclinD1 (Homo sapiens)" observed_result="4.41 µM"

----------
# tested-target: CDK2/CyclinE1 (Homo sapiens, UniProt P24941)
# assay-summary: CDKi biochemical assay (TR-FRET, phosphorylation of S780 on RB1 peptide)
# test-context: CDK2/CyclinE1 100 pM, 1 mM ATP, 60 min at 25° C.
measured-quantity: IC50 (nM)

chemical_smiles=O=C1N([C@@H]2CCC[C@@H](O)C2)c2nc(Nc3c[nH]nc3O[C@@H]3COC[C@@H]3F)ncc2C12CC2 tested_target="CDK2/CyclinE1 (Homo sapiens, UniProt P24941)" units=nM observed_result=59
chemical_smiles=O=C1N([C@@H]2CCCC[C@@H](O)C2)c2nc(Nc3c[nH]nc3Cl)ncc2C12CC2 tested_target="CDK2/CyclinE1 (Homo sapiens, UniProt P24941)" units=nM observed_result=44
chemical_smiles=O=C1N([C@@H]2CCC[C@@H](O)C2)c2nc(Nc3c[nH]nc3-c3ccccn3)ncc2C12CC2 tested_target="CDK2/CyclinE1 (Homo sapiens, UniProt P24941)" units=nM observed_result=162
chemical_smiles=O=C1N([C@@H]2CCC[C@@H](O)C2)c2nc(Nc3c[nH]nc3O[C@@H]3CCOC3)ncc2C12CC2 tested_target="CDK2/CyclinE1 (Homo sapiens, UniProt P24941)" units=nM observed_result=43
chemical_smiles=O=C1N([C@@H]2CCC[C@@H](O)C2)c2nc(Nc3c[nH]nc3-c3cnn4c3CCC4)ncc2C12CC2 tested_target="CDK2/CyclinE1 (Homo sapiens, UniProt P24941)" units=nM observed_result=27
chemical_smiles=O=C1N([C@@H]2CCC[C@@H](O)C2)c2nc(Nc3c[nH]nc3OCC3CC4(COC4)C3)ncc2C12CC2 tested_target="CDK2/CyclinE1 (Homo sapiens, UniProt P24941)" units=nM observed_result=134
chemical_smiles=O=C1N([C@@H]2CCC[C@@H](O)C2)c2nc(Nc3c[nH]nc3-c3cnn4c3CCCC4)ncc2C12CC2 tested_target="CDK2/CyclinE1 (Homo sapiens, UniProt P24941)" units=nM observed_result=49

----------
Attribute: pIC50
# tested-target: CDK1/CyclinB1 (Homo sapiens)
# assay-summary: CDKi biochemical assay (TR-FRET, phosphorylation of S780 on RB1 peptide)
# test-context: CDK1/CyclinB1 10 pM, 1 mM ATP, 60 min at 25° C.
pIC50: −log10 of the molar value.
measured-quantity: pIC50

compound="O=C1N([C@@H]2CCC[C@@H](O)C2)c2nc(Nc3c[nH]nc3OCC3CC4(COC4)C3)ncc2C12CC2 [Example 54]" tested_target="CDK1/CyclinB1 (Homo sapiens)" measured_quantity=pIC50 result_comparator=≤ observed_result=5.00
compound="CN1C[C@H](Oc2n[nH]cc2Nc2ncc3c(n2)N([C@@H]2CCC[C@@H](O)C2)C(=O)C32CC2)[C@@H](F)C1 [Example 51]" tested_target="CDK1/CyclinB1 (Homo sapiens)" measured_quantity=pIC50 result_comparator=≤ observed_result=5.00
compound="COCc1ncc(Nc2ncc3c(n2)N([C@@H]2CCC[C@@H](O)C2)C(=O)C32CC2)[nH]1 [Example 11]" tested_target="CDK1/CyclinB1 (Homo sapiens)" measured_quantity=pIC50 result_comparator=≤ observed_result=5.00
compound="O=C1N([C@@H]2CCC[C@@H](O)C2)c2nc(Nc3c[nH]nc3C#Cc3cccnc3)ncc2C12CC2 [Example 36]" tested_target="CDK1/CyclinB1 (Homo sapiens)" measured_quantity=pIC50 result_comparator== observed_result=5.30
compound="O=C1N([C@@H]2CCC[C@@H](O)C2)c2nc(Nc3c[nH]nc3CO)ncc2C12CC2 [Example 6]" tested_target="CDK1/CyclinB1 (Homo sapiens)" measured_quantity=pIC50 result_comparator== observed_result=5.53
compound="O=C1N([C@@H]2CCC[C@@H](O)C2)c2nc(Nc3c[nH]nc3[C@@H]3CC3(F)F)ncc2C12CC2 [Example 33]" tested_target="CDK1/CyclinB1 (Homo sapiens)" measured_quantity=pIC50 result_comparator== observed_result=5.42
compound="O=C1N([C@@H]2CCC[C@@H](O)C2)c2nc(Nc3c[nH]nc3-c3ccncc3)ncc2C12CC2 [Example 59]" tested_target="CDK1/CyclinB1 (Homo sapiens)" measured_quantity=pIC50 result_comparator=≤ observed_result=5.00
compound="O=C1N([C@@H]2CCCC[C@@H](O)C2)c2nc(Nc3c[nH]nc3Cl)ncc2C12CC2 [Example 19]" tested_target="CDK1/CyclinB1 (Homo sapiens)" measured_quantity=pIC50 result_comparator== observed_result=5.39
compound="Cn1ccc(COc2n[nH]cc2Nc2ncc3c(n2)N([C@@H]2CCC[C@@H](O)C2)C(=O)C32CC2)n1 [Example 43]" tested_target="CDK1/CyclinB1 (Homo sapiens)" measured_quantity=pIC50 result_comparator== observed_result=5.75
compound="O=C1N([C@@H]2CCC[C@@H](O)C2)c2nc(Nc3c[nH]nc3OC3CCC(F)(F)C3)ncc2C12CC2 (stereo partly shown) [Example 30]" tested_target="CDK1/CyclinB1 (Homo sapiens)" measured_quantity=pIC50 result_comparator== observed_result=5.37
compound="O=C1N([C@@H]2CCC[C@@H](O)C2)c2nc(Nc3c[nH]nc3OC3CCOCC3)ncc2C12CC2 [Example 74]" tested_target="CDK1/CyclinB1 (Homo sapiens)" measured_quantity=pIC50 result_comparator=≤ observed_result=5.00
compound="CN1C[C@@H](F)[C@H](Oc2n[nH]cc2Nc2ncc3c(n2)N([C@@H]2CCC[C@@H](O)C2)C(=O)C32CC2)C1 [Example 50]" tested_target="CDK1/CyclinB1 (Homo sapiens)" measured_quantity=pIC50 result_comparator=≤ observed_result=5.00
compound="O=C1N([C@@H]2CCC[C@@H](O)C2)c2nc(Nc3c[nH]nc3O[C@H]3CC3(F)F)ncc2C12CC2 [Example 69]" tested_target="CDK1/CyclinB1 (Homo sapiens)" measured_quantity=pIC50 result_comparator== observed_result=6.10

----------
# tested-target: CDK1/CyclinB1 (Homo sapiens, UniProt P06493)
# assay-summary: CDKi biochemical assay (TR-FRET, phosphorylation of S780 on RB1 peptide)
# test-context: CDK1/CyclinB1 10 pM, 1 mM ATP, 60 min at 25° C.
Attribute: IC50
measured-quantity: IC50

molecule="Cn1ccc(-c2n[nH]cc2Nc2ncc3c(n2)N([C@@H]2CCC[C@@H](O)C2)C(=O)C32CC2)n1 [Example 79]" tested_target="CDK1/CyclinB1 (Homo sapiens, UniProt P06493)" observed_result="≥ 10 µM"
molecule="O=C1N([C@@H]2CCC[C@@H](O)C2)c2nc(Nc3c[nH]nc3OC3CN(CC(F)(F)F)C3)ncc2C12CC2 [Example 46]" tested_target="CDK1/CyclinB1 (Homo sapiens, UniProt P06493)" observed_result="≥ 10 µM"
molecule="Cn1cc(-c2n[nH]cc2Nc2ncc3c(n2)N([C@@H]2CCC[C@@H](O)C2)C(=O)C32CC2)cn1 [Example 80]" tested_target="CDK1/CyclinB1 (Homo sapiens, UniProt P06493)" observed_result="6.01 µM"
